Target: RARalpha dAB dF;RXRalpha dAB (Mus musculus / Homo sapiens (Methods …, UniProt P11416;P19793 82-421;126-462, |))
Sequence (P11416 82-421, chain 1 of 2): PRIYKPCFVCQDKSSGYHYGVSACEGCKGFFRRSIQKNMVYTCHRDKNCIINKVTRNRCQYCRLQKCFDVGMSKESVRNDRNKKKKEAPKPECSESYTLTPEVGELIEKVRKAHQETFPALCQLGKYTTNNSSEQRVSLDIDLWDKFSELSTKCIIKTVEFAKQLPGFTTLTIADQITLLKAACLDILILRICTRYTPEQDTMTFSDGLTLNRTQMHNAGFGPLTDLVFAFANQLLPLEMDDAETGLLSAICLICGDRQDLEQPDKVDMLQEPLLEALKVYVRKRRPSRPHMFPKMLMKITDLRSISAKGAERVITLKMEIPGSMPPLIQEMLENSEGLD
Sequence (P19793 126-462, chain 2 of 2): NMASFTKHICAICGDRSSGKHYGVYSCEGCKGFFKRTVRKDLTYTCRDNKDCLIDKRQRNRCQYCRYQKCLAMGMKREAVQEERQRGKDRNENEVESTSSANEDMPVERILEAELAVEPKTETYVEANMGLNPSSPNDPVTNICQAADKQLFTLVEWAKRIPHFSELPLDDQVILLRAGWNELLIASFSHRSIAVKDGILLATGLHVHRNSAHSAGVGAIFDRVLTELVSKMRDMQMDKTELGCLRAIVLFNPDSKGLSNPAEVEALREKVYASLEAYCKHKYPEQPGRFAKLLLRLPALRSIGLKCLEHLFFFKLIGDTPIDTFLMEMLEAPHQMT
Assay: fluorescence anisotropy; apo; Fluorescence anisotropy: 20 mM Tris-HCl pH 7.5, 75 mM NaCl, 75 mM KCl, 2 mM CHAPS, 4 mM MgCl2, 2 mM TCEP, 10% glycerol, 0.5 nM Cy5-DNA, 4 uM ligands, 294 K
Settings: protein: recombinant;recombinant; tags: N-terminal His6 (pET15b); copies: 1;1; label: Cy5 on forward strand; 5' overhang 1 nt at both ends (so in the source)
ATTRIBUTE MEASURED: Kd (nM)
Numbers only, in nM.

Task: Assign Kd to the following record: IR0 Trim16 Cy5 (dsDNA) DNA 1: GCAGGGTCATGACCCCGC DNA 2: CGCGGGGTCATGACCCTG
Result: 1.9
